Organism: Homo sapiens
Test: Hepatic clearance in human
Settings: in vivo
Assignment: determine reported CL for the given molecules.
One number for each entry, in mL/min/kg.

Here is how some molecules turned out for CL.
CCCN(CCC)S(=O)(=O)c1ccc(C(=O)O)cc1
0.2
CCCCCN(CCCOC)C(=O)[C@@H](CCC(=O)O)NC(=O)c1ccc(Cl)c(Cl)c1 [DEXLOXIGLUMIDE]
3.3
COc1ccc(C(CN(C)C)C2(O)CCCCC2)cc1 (centres undefined)
13.4
CCOC(=O)C1(c2ccccc2)CCC=CC1N(C)C (centres undefined)
15.7
C[C@H](/C=C/[C@H](C)C(C)(C)O)[C@H]1CC[C@H]2/C(=C/C=C3C[C@@H](O)C[C@H](O)C3)CCC[C@]12C
0.9

Count: 6. Required value per item: CL.
1. CCCCN1CCCCC1C(=O)Nc1c(C)cccc1C (centres undefined)
2. Cc1onc(-c2c(Cl)cccc2Cl)c1C(=O)N[C@@H]1C(=O)N2[C@@H]1SC(C)(C)[C@@H]2C(=O)O
3. CN(C)C(=O)Oc1ccc[n+](C)c1
4. CCN(CC)C(=O)/C(C#N)=C/c1cc(O)c(O)c([N+](=O)[O-])c1
5. CO/N=C(\C(=O)N[C@@H]1C(=O)N2C(C(=O)O)=C(CSc3nc(=O)c(=O)[nH]n3C)CS[C@H]12)c1csc(N)n1
6. COc1ccnc(C[S+]([O-])c2nc3ccc(OC(F)F)cc3[nH]2)c1OC (centres undefined)

1: 4.2; 2: 0.8; 3: 2.4; 4: 5.3; 5: 0.1; 6: 2.2

Count: 8. Required value per item: CL.
1. COc1ccc(C(=O)Nc2ccccc2CCC2CCCCN2C)cc1 (centres undefined) [ENCAINIDE]
2. Nc1ccc(S(=O)(=O)Nc2ncccn2)cc1
3. C[C@@H]1CN(c2c(F)c(N)c3c(=O)c(C(=O)O)cn(C4CC4)c3c2F)C[C@H](C)N1
4. Cc1ccccc1N1C(=O)c2cc(S(N)(=O)=O)c(Cl)cc2NC1C (centres undefined)
5. CS(=O)(=O)OCCCCOS(C)(=O)=O
6. CCOC(=O)c1ncn2c1CN(C)C(=O)c1cc(F)ccc1-2
7. NC(=O)NO [HYDROXYUREA]
8. CN(C)[C@@H]1C(O)=C(C(N)=O)C(=O)[C@@]2(O)C(O)=C3C(=O)c4c(O)cccc4[C@@](C)(O)[C@H]3C[C@@H]12

12.2
0.2
2.3
0.3
2.4
16
1
0.6

Count: 5. Required value per item: CL.
1. CO[C@H]1/C=C/O[C@@]2(C)Oc3c(C)c(O)c4c(O)c(c(/C=N/N5CCN(C)CC5)c(O)c4c3C2=O)NC(=O)/C(C)=C\C=C\[C@H](C)[C@H](O)[C@@H](C)[C@@H](O)[C@@H](C)[C@H](OC(C)=O)[C@@H]1C
2. O=C(NCCN1CCOCC1)c1ccc(Cl)cc1 [MOCLOBEMIDE]
3. C=CCN1CCCC1CNC(=O)c1cc2[nH]nnc2cc1OC (centres undefined) [ALIZAPRIDE]
4. COc1cc([C@@H]2c3cc4c(cc3[C@@H](O[C@@H]3O[C@@H]5CO[C@@H](C)O[C@H]5[C@H](O)[C@H]3O)[C@H]3COC(=O)[C@H]23)OCO4)cc(OC)c1O [ETOPOSIDE]
5. OC(Cn1cncn1)(Cn1cncn1)c1ccc(F)cc1F

1: 1.3; 2: 10; 3: 1.3; 4: 0.3; 5: 0.1

###

Test: clinical
Conditions: human, in vivo
Assignment: determine reported CL renal for the given compounds.
Put your answer as a value accompanied by its unit after it.

OC(Cn1cncn1)(Cn1cncn1)c1ccc(F)cc1F
0.2 mL/min/kg
O=c1n(CCCN2CCN(c3cccc(Cl)c3)CC2)nc2ccccn12
0.0018 mL/min/kg
CNC[C@H](O)CC12CCC(c3ccccc31)c1ccccc12
0.2 mL/min/kg
O=C(O)CCCc1ccc(N(CCCl)CCCl)cc1
0.028 mL/min/kg
O=C1NCC2(CCN(CCc3ccccc3)CC2)O1 [FENSPIRIDE]
1.8 mL/min/kg
O=C(O)Cc1ccccc1Nc1c(Cl)cccc1Cl
0.035 mL/min/kg
Cc1ncc([N+](=O)[O-])n1CCO
0.2 mL/min/kg
C[C@H]([C@](O)(Cn1cncn1)c1ccc(F)cc1F)S(C)(=O)=O
0.2 mL/min/kg
O=C1NC(=O)C(c2ccccc2)(c2ccccc2)N1
0.0074 mL/min/kg
COC(=O)Nc1nc2ccc(C(=O)c3ccccc3)cc2[nH]1
0.2 mL/min/kg

Count: 5. Required value per item: CL renal.
1. O=c1[nH]c2ccccc2n1CCCN1CCC(n2c(=O)[nH]c3cc(Cl)ccc32)CC1
2. C[C@@H]1[C@H](O)[C@@H](C)/C=C/C=C/C=C/C=C/C=C/C=C/C=C/[C@H](O[C@@H]2O[C@H](C)[C@@H](O)[C@H](N)[C@@H]2O)C[C@@H]2O[C@](O)(C[C@@H](O)C[C@@H](O)[C@H](O)CC[C@@H](O)C[C@@H](O)CC(=O)O[C@H]1C)C[C@H](O)[C@H]2C(=O)O
3. O=C1CN=C(c2ccccn2)c2cc(Br)ccc2N1
4. O=C(O)c1cc(/N=N/c2ccc(O)c(C(=O)O)c2)ccc1O
5. CCOc1cc(CC(=O)N[C@@H](CC(C)C)c2ccccc2N2CCCCC2)ccc1C(=O)O [REPAGLINIDE]

0.038 mL/min/kg
0.0138 mL/min/kg
0.3 mL/min/kg
0.3 mL/min/kg
0.1 mL/min/kg

Count: 6. Required value per item: CL renal.
1. CN(C)CCC(c1ccc(Cl)cc1)c1ccccn1 (stereo not drawn)
2. Cc1nnc2n1-c1ccc(Cl)cc1C(c1ccccc1)=NC2
3. CC[C@H]1OC(=O)[C@H](C)[C@@H](O[C@H]2C[C@@](C)(OC)[C@@H](O)[C@H](C)O2)[C@H](C)[C@@H](O[C@@H]2O[C@H](C)C[C@H](N(C)C)[C@H]2O)[C@](C)(OC)C[C@@H](C)C(=O)[C@H](C)[C@@H](O)[C@]1(C)O
4. Cc1cccc(Nc2ccncc2S(=O)(=O)NC(=O)NC(C)C)c1 [TORSEMIDE]
5. CCCCCNC(=N)N/N=C/c1c[nH]c2ccc(OC)cc12
6. COc1cc([C@@H]2c3cc4c(cc3[C@@H](O[C@@H]3O[C@@H]5CO[C@@H](C)O[C@H]5[C@H](O)[C@H]3O)[C@H]3COC(=O)[C@H]23)OCO4)cc(OC)c1O [ETOPOSIDE]

1: 0.4 mL/min/kg; 2: 0.1 mL/min/kg; 3: 2.6 mL/min/kg; 4: 0.1 mL/min/kg; 5: 0.4 mL/min/kg; 6: 0.2 mL/min/kg

Count: 7. Required value per item: CL renal.
1. C[C@@H](O)[C@H]1C(=O)N2C(C(=O)O)=C(SCCN=CN)C[C@H]12 [IMIPENEM ANHYDROUS]
2. NS(=O)(=O)c1cc2c(cc1C(F)(F)F)NCNS2(=O)=O [HYDROFLUMETHIAZIDE]
3. Cc1ccsc1C(=CCCN1CCC[C@@H](C(=O)O)C1)c1sccc1C
4. Cc1ccc(-c2nc3ccc(C)cn3c2CC(=O)N(C)C)cc1
5. Cc1nccn1CC1CCc2c(c3ccccc3n2C)C1=O (stereo not drawn)
6. CNC(=O)Oc1ccc2c(c1)[C@]1(C)CCN(C)[C@@H]1N2C
7. CCS(=O)(=O)CCn1c([N+](=O)[O-])cnc1C

1. 1.5 mL/min/kg
2. 9 mL/min/kg
3. 0.032 mL/min/kg
4. 0.043 mL/min/kg
5. 0.3 mL/min/kg
6. 16.5 mL/min/kg
7. 0.1 mL/min/kg

###

Test system: Homo sapiens
Experiment: Oral bioavailability in human
Conditions: in vivo
observation_type: F_fraction
Numbers only.

Here is how some compounds turned out for F_fraction.
CO[C@H]1/C=C/O[C@@]2(C)Oc3c(C)c(O)c4c(c3C2=O)C2=NC3(CCN(CC(C)C)CC3)NC2=C(NC(=O)/C(C)=C\C=C\[C@H](C)[C@H](O)[C@@H](C)[C@@H](O)[C@@H](C)[C@H](OC(C)=O)[C@@H]1C)C4=O
0.2
C[C@H](CS)C(=O)N1CCC[C@H]1C(=O)O
0.62
CCCc1nc2c(C)cc(-c3nc4ccccc4n3C)cc2n1Cc1ccc(-c2ccccc2C(=O)O)cc1
0.43
CCc1nn(CCCN2CCN(c3cccc(Cl)c3)CC2)c(=O)n1CCOc1ccccc1
0.19

Now examine the next entry.
F_fraction for CCCC(=O)Nc1ccc(OCC(O)CNC(C)C)c(C(C)=O)c1 (stereo not given) ?
0.5

###

Experiment: clinical
Conditions: human, in vivo
Assignment: determine reported CL renal for the given compounds.
One number for each entry, in mL/h/kg.

Here is how some compounds turned out for CL renal.
CCCCN1CCCCC1C(=O)Nc1c(C)cccc1C (centres undefined)
6
C[C@H]1c2cccc(O)c2C(=O)C2=C(O)[C@]3(O)C(=O)C(C(N)=O)=C(O)[C@@H](N(C)C)[C@@H]3[C@@H](O)[C@@H]21.O
12
Nc1c(CC(=O)O)cccc1C(=O)c1ccc(Br)cc1
0.132

Now examine the next entry.
CL renal for COc1ccc([C@]2(C#N)CC[C@@H](C(=O)O)CC2)cc1OC1CCCC1 ?
0.3
